target_desc: Serine/threonine-protein kinase pim-2 (Homo sapiens);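 note: each value is a mean of the inhibition measurements against the kinase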
condition: at 1 µM
Listing: inhibition of selected compounds
Numbers only; they are read as %.

Request the reported inhibition associated with `c1ccc(Oc2ccc(Nc3ncc(-c4ccccc4)o3)cc2)cc1`
0.53

Given the entry `CN(C)CCOc1ccc(-c2cc(-c3ccc4c(c3)CCC4=NO)c(-c3ccncc3)o2)cc1` , report its measured inhibition.
0.08

Record request: inhibition value, item `COc1ccc(-c2ccc3c(NC(=O)C4CC4)n[nH]c3n2)cc1`
0.38

====

target_desc: Tyrosine-protein kinase Fgr (Homo sapiens) (UniProt P09769);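 note: value reported as mean kinase inhibition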
Sequence (P09769 2-529 limits assumed): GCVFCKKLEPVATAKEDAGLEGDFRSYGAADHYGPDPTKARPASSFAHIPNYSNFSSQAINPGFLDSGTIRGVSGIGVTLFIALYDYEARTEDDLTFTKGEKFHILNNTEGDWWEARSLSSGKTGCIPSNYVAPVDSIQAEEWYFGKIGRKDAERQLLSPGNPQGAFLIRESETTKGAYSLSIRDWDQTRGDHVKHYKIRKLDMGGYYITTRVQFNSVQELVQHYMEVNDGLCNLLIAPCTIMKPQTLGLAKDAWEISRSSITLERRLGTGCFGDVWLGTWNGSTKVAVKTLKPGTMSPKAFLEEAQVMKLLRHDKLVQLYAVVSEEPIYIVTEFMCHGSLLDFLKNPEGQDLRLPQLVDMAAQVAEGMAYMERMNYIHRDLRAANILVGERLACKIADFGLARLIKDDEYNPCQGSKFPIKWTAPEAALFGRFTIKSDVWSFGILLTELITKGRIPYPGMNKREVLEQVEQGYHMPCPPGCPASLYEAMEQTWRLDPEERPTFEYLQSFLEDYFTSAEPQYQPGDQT
condition: at 1 µM
inhibition values, listed per item
// units = %; emit number, no label

Could you tell me which inhibition is on file for `c1ccc(-c2n[nH]cc2-c2ccnc(-c3ccc(OCCN4CCOCC4)cc3)c2)nc1` ?
6.86

What value of measured inhibition is listed for `COc1cc(Nc2ncc(-c3ccccc3)o2)cc(OC)c1OC` ?
29.4

Find the recorded inhibition belonging to `CCS(=O)(=O)c1ccc(OC)c(Nc2ncc(-c3ccccc3Cl)o2)c1` and report it.
17

Given the compound `CCS(=O)(=O)c1ccc(OC)c(Nc2ncc(-c3cccc(-c4ccccc4F)c3)o2)c1` , what is its reported inhibition?
52.1

Looking for the measured inhibition of `O=C(Nc1ccc(Oc2ccc3[nH]c(NC(=O)c4ccccc4)nc3c2)cc1)Nc1cc(C(F)(F)F)ccc1F` , can you help?
7.53

# lookup: inhibition of `Fc1ccc(-c2nc3n(c2-c2ccncc2)CCS3)cc1`
5.64

What value of measured inhibition is listed for `COc1cc(Nc2ncc3c(C)nc(-c4cccc(C(F)(F)F)c4)n3n2)cc(OC)c1OC` ?
14

Param item = `CS(=O)(=O)CCNCc1cc(-c2cc3c(Nc4ccc(OCc5cccc(F)c5)c(Cl)c4)ncnc3s2)cs1` ; retrieve measured inhibition.
4.32

Entry `Fc1ccc(-c2ncn(C3CCNCC3)c2-c2ccnc(Oc3ccc(F)c(F)c3)n2)cc1` has what inhibition?
3.69
